# tested.system: rSmTAChE (Schistosoma mansoni, UniProt A0A3Q0KMM5)
# Sequence (A0A3Q0KMM5 27-661 limits assumed): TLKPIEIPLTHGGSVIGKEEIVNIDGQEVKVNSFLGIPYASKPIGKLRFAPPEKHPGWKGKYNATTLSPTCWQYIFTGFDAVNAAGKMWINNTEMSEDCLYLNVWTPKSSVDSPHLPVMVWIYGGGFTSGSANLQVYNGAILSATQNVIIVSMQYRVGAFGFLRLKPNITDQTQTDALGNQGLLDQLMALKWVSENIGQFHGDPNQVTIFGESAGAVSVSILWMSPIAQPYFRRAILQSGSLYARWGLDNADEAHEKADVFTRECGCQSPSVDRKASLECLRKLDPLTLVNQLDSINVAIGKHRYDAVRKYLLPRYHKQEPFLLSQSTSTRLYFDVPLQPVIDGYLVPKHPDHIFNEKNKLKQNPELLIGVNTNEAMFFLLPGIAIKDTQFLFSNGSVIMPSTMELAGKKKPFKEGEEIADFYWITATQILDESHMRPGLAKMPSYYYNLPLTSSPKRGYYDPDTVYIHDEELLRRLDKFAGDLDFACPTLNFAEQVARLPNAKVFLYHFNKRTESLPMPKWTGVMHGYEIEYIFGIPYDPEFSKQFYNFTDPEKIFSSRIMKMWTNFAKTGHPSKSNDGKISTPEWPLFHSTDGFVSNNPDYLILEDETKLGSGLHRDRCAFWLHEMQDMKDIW
# Type: biochemical
# experimental.parameters: read-out: rSmTAChE qAC50
pIC50: −log10 of the molar value.
measurement.label: pIC50

sample_smiles=COc1ccc(NC(=O)Nc2ccc3c(c2)[C@H]2C[C@@H](CC(=O)NCc4ccccn4)O[C@@H](CO)[C@H]2O3)cc1 measured_value=4.42

###

# tested.system: rSmTAChE (Schistosoma mansoni, UniProt A0A3Q0KMM5)
# Format: biochemical
measurement.label: Data Mode (curve class), rSmTAChE

molecule=CC(C)(C#N)c1ccc(N2C(=O)OCc3cnc4ccc(-c5cnc6ccccc6c5)cc4c32)cc1 tested_system="rSmTAChE (Schistosoma mansoni, UniProt A0A3Q0KMM5)" measurement_label="Data Mode (curve class), rSmTAChE" measured_value=inactive
molecule="Cc1cc(Nc2ncc(Cl)c(Nc3ccccc3S(=O)(=O)C(C)C)n2)c(OC(C)C)cc1C1CCNCC1 [Ceritinib, reference compound]" tested_system="rSmTAChE (Schistosoma mansoni, UniProt A0A3Q0KMM5)" measurement_label="Data Mode (curve class), rSmTAChE" measured_value=decreasing
molecule="Cc1cnc(Nc2ccc(N3CCN(C)CC3)cc2)nc1Nc1cccc(S(=O)(=O)NC(C)(C)C)c1 [TG-101209, reference compound]" tested_system="rSmTAChE (Schistosoma mansoni, UniProt A0A3Q0KMM5)" measurement_label="Data Mode (curve class), rSmTAChE" measured_value=decreasing
molecule=CCCCCCCCCCCCCCCC[N+](C)(C)C tested_system="rSmTAChE (Schistosoma mansoni, UniProt A0A3Q0KMM5)" measurement_label="Data Mode (curve class), rSmTAChE" measured_value=decreasing
molecule=CC1(C)CCC(C)(C)c2cc(C#Cc3ccc(C(=O)O)cc3)ccc21 tested_system="rSmTAChE (Schistosoma mansoni, UniProt A0A3Q0KMM5)" measurement_label="Data Mode (curve class), rSmTAChE" measured_value=decreasing
molecule="Clc1ccc(C(c2ccccc2Cl)C(Cl)Cl)cc1 (stereo not drawn)" tested_system="rSmTAChE (Schistosoma mansoni, UniProt A0A3Q0KMM5)" measurement_label="Data Mode (curve class), rSmTAChE" measured_value=inactive
